biological target: Mcl-1/Bim interaction, recombinant human Mcl-1 (171-327) (Homo sapiens, UniProt Q07820); construct: made in house; experiment: Cell free Mcl-1: Bim Affinity Assay (Mcl-1 HTRF); type: binding; conditions: cell free Mcl-1:Bim TR-FRET, recombinant human Mcl-1 (171-327)
Sequence (Q07820 171-327): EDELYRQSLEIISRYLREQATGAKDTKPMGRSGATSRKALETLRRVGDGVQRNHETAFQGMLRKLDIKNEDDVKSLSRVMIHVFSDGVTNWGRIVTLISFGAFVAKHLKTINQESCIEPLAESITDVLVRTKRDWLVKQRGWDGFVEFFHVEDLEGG
recorded endpoint: IC50 (nM)
Express the result in nM but write the number alone.

Consider the worked cases shown below.
C[C@H]1/C=C/[C@@H](O)[C@@H]2CC[C@H]2CN2C[C@@]3(CCCc4cc(Cl)ccc43)COc3ccc(cc32)C(=O)NS(=O)(=O)CC1(C)C (single isomer, unassigned) | 8.81
CC(C)C(=O)N[C@@H]1CCCCCS(=O)(=O)NC(=O)c2ccc3c(c2)N(C[C@@H]2CC[C@H]21)C[C@@]1(CCCc2cc(Cl)ccc21)CO3 (single isomer, unassigned) | 4.74
O=C1NS(=O)(=O)C/C=C/C[C@@H](O)C[C@@H]2CC[C@H]2CN2C[C@@]3(CCCc4cc(Cl)ccc43)COc3ccc1cc32 (single isomer, unassigned) | 7.78
C[C@@H]1[C@@H](C)C/C=C/[C@H](OCCC2CCOCC2)[C@@H]2CC[C@H]2CN2C[C@@]3(CCCc4cc(Cl)ccc43)COc3ccc(cc32)C(=O)NS1(=O)=O | 11.9

-- ask Tell me the measured IC50 of O=C1NS(=O)(=O)CCCCC[C@H](NCCO)[C@@H]2CC[C@H]2CN2C[C@@]3(CCCc4cc(Cl)ccc43)COc3ccc1cc32 (single isomer, unassigned) , please.
-- reply 40

====

target: Mcl-1/Bim interaction, recombinant human Mcl-1 (171-327) (Homo sapiens, UniProt Q07820); construct: made in house; test: Cell free Mcl-1: Bim Affinity Assay (Mcl-1 HTRF); format: binding; details: cell free Mcl-1:Bim TR-FRET, recombinant human Mcl-1 (171-327)
recorded endpoint: IC50 (nM)
Numeric only. Scale: nM

As a guide, the following entries are already answered.
C[C@H]1C/C=C/C[C@H](O)[C@@H]2CC[C@H]2CN2C[C@@]3(CCCc4cc(Cl)ccc43)COc3ccc(cc32)C(=O)NS(=O)(=O)[C@H]1C (single isomer, unassigned) | 1.08
O=C1NS(=O)(=O)C/C=C/CC[C@H](O)[C@@H]2CC[C@H]2CN2C[C@@]3(CCCc4cc(Cl)ccc43)COc3ccc1cc32 | 1.54
O=C1NS(=O)(=O)[C@H]2CCN(C2)C(=O)CC[C@@H]2CC[C@H]2CN2C[C@@]3(CCCc4cc(Cl)ccc43)COc3ccc1cc32 (single isomer, unassigned) | 4.15
C[C@@H]1[C@@H](C)C/C=C/[C@H](OCCN2CCOCC2=O)[C@@H]2CC[C@H]2CN2C[C@@]3(CCCc4cc(Cl)ccc43)COc3ccc(cc32)C(=O)NS1(=O)=O | 0.365

-- ask Need IC50, item `CC[C@@H]1[C@@H](C)C/C=C/[C@H](OCCOC)[C@@H]2CC[C@H]2CN2C[C@@]3(CCCc4cc(Cl)ccc43)COc3ccc(cc32)C(=O)NS1(=O)=O`
-- reply 0.543

====

target: Mcl-1/Bim interaction, recombinant human Mcl-1 (171-327) (Homo sapiens, UniProt Q07820); construct: made in house; experiment: Cell free Mcl-1: Bim Affinity Assay (Mcl-1 HTRF); format: binding; settings: cell free Mcl-1:Bim TR-FRET, recombinant human Mcl-1 (171-327)
pIC50: −log10 of the molar value.
Classification field: true = pIC50 at or over 9; false = pIC50 under 9.

COC[C@@H](O)C[C@@H]1[C@@H](C)C/C=C/[C@H](O)[C@@H]2CC[C@H]2CN2C[C@@]3(CCCc4cc(Cl)ccc43)COc3ccc(cc32)C(=O)NS1(=O)=O (single isomer, unassigned) [Example 672] | true

-- ask pIC50 >= 9 for C[C@@H]1[C@H](O)C/C=C/C[C@@H]2CC[C@H]2CN2C[C@@]3(CCCc4cc(Cl)ccc43)COc3ccc(cc32)C(=O)NS1(=O)=O (single isomer, unassigned) ?
-- reply false

-- ask Next: COC[C@@H](O)C[C@@H]1[C@@H](C)C/C=C/[C@H](OC)[C@@H]2CC[C@H]2CN2C[C@@]3(CCCc4cc(Cl)ccc43)COc3ccc(cc32)C(=O)NS1(=O)=O (single isomer, unassigned)
-- reply true

-- ask Next record, please: `C[C@@H]1[C@@H](C)C/C=C/[C@H](OCCN(C)C)[C@@H]2CC[C@H]2CN2C[C@@]3(CCCc4cc(Cl)ccc43)COc3ccc(cc32)C(=O)NS1(=O)=O`
-- reply true

-- ask And for `COCCO[C@H]1/C=C/C[C@H](C)[C@@H](C)S(=O)(=O)NC(=O)c2ccc3c(c2)N(C[C@@H]2CC[C@H]21)C[C@@]1(CCCc2cc(Cl)ccc21)CO3` ?
-- reply true

-- ask Another compound to look at: O=C1NS(=O)(=O)CCC[C@]2(O)CCO[C@H](C2)[C@@H]2CC[C@H]2CN2C[C@@]3(CCCc4cc(Cl)ccc43)COc3ccc1cc32 (single isomer, unassigned) [Example 900]
-- reply false

-- ask Also, C[C@@H]1[C@@H](C)C/C=C/[C@H](OC[C@@H](C)O)[C@@H]2CC[C@H]2CN2C[C@@]3(CCCc4cc(Cl)ccc43)COc3ccc(cc32)C(=O)NS1(=O)=O (single isomer, unassigned) [Example 527] please.
-- reply true

-- ask Further, for Cc1nnc(CCC2CCC=CC(O)C3CCC3CN3CC4(CCCc5cc(Cl)ccc54)COc4ccc(cc43)C(=O)NS2(=O)=O)o1 (single isomer, unassigned) ?
-- reply true

-- ask What about this compound? O=C1NS(=O)(=O)C[C@@H](C2CC2)C/C=C/[C@H](O)[C@@H]2CC[C@H]2CN2C[C@@]3(CCCc4cc(Cl)ccc43)COc3ccc1cc32 (single isomer, unassigned) [Example 683]
-- reply false

====

target: Mcl-1/Bim interaction, recombinant human Mcl-1 (171-327) (Homo sapiens, UniProt Q07820); construct: made in house; assay: Cell free Mcl-1: Bim Affinity Assay (Mcl-1 HTRF); format: binding; settings: cell free Mcl-1:Bim TR-FRET, recombinant human Mcl-1 (171-327)
Please assign Criterion not met whenever IC50 is at or above 4 nM, and Criterion met whenever it is below.

Use these answered entries as a reference point.
C[C@@H]1CC/C=C/[C@H](O)[C@@H]2CC[C@H]2CN2C[C@@]3(CCCc4nc(Cl)ccc43)COc3ccc(cc32)C(=O)NS1(=O)=O | Criterion not met
CN(C)S(=O)(=O)N1CCN(C(=O)C[C@@H]2CC/C=C/[C@H](O)[C@@H]3CC[C@H]3CN3C[C@@]4(CCCc5cc(Cl)ccc54)COc4ccc(cc43)C(=O)NS2(=O)=O)CC1 (single isomer, unassigned) | Criterion met
CC[C@@H]1C/C=C/[C@H](OC)[C@@H]2CC[C@H]2CN2C[C@@]3(CCCc4cc(Cl)ccc43)COc3ccc(cc32)C(=O)NS1(=O)=O | Criterion met

# next molecule below
-- ask Regarding CO[C@H](C)C[C@@H]1[C@@H](C)C/C=C/[C@H](OC)[C@@H]2CC[C@H]2CN2C[C@@]3(CCCc4cc(Cl)ccc43)COc3ccc(cc32)C(=O)NS1(=O)=O (single isomer, unassigned) , kindly confirm whether its IC50 is beneath 4 nM.
-- reply Criterion met

====

Recorded measurements of IC50, one per entry
target: Mcl-1/Bim interaction, recombinant human Mcl-1 (171-327) (Homo sapiens); construct: made in house; assay: Cell free Mcl-1: Bim Affinity Assay (Mcl-1 HTRF); assay type: binding; conditions: cell free Mcl-1:Bim TR-FRET, recombinant human Mcl-1 (171-327)
Answer with a number only, understood to be in nM.

# example entries with known answers
C[C@@H]1CC/C=C/[C@H](O)[C@@H]2CC[C@H]2CN2C[C@@]3(CCc4cc(Cl)ccc43)COc3ccc(cc32)C(=O)NS1(=O)=O [Example 698] | 0.679
O=C1NS(=O)(=O)CC/C=C/[C@@H]2CC[C@H]2CN2C[C@@]3(CCCc4cc(Cl)ccc43)COc3ccc1cc32 [Example 825] | 26.4

-- ask Query: IC50; subject: CC(=O)N1CC[C@H](O)[C@@H]2CC[C@H]2CN2C[C@@]3(CCCc4cc(Cl)ccc43)COc3ccc(cc32)C(=O)NS(=O)(=O)CC1 (single isomer, unassigned) [Example 778]
-- reply 6.89

====

target: Mcl-1/Bim interaction, recombinant human Mcl-1 (171-327) (Homo sapiens); construct: made in house; experiment: Cell free Mcl-1: Bim Affinity Assay (Mcl-1 HTRF); format: binding; settings: cell free Mcl-1:Bim TR-FRET, recombinant human Mcl-1 (171-327)
recorded endpoint: pIC50
Note on pIC50: it is the negative log10 of concentration, concentration in mol/L.

Illustrative cases are given below, each with its answer.
O=C(C[C@@H]1CC/C=C/[C@H](O)[C@@H]2CC[C@H]2CN2C[C@@]3(CCCc4cc(Cl)ccc43)COc3ccc(cc32)C(=O)NS1(=O)=O)Nc1ccccc1 (single isomer, unassigned) [Example 630] | 8.79
COC(=O)C[C@H]1CC/C=C/[C@H](O)[C@@H]2CC[C@H]2CN2C[C@@]3(CCCc4cc(Cl)ccc43)COc3ccc(cc32)C(=O)NS1(=O)=O [Example 620] | 9.15
C[C@@H]1[C@@H](C)C/C=C/[C@H](OCCN2CCC2)[C@@H]2CC[C@H]2CN2C[C@@]3(CCCc4cc(Cl)ccc43)COc3ccc(cc32)C(=O)NS1(=O)=O [Example 526] | 8.98

-- ask I am curious: what pIC50 value has been reported for CC[C@@H]1C/C=C/[C@H](OCC(=O)O)[C@@H]2CC[C@H]2CN2C[C@@]3(CCCc4cc(Cl)ccc43)COc3ccc(cc32)C(=O)NS1(=O)=O [Example 764] ?
-- reply 9.95

-- ask Also, O=C1NS(=O)(=O)CCCCCC[C@H](O)[C@@H]2CC[C@H]2CN2C[C@@]3(CCCc4cc(Cl)ccc43)COc3ccc1cc32 [Example 835] please.
-- reply 8.46

-- ask Now give it for CC[C@@H]1CC/C=C/[C@H](OC)[C@@H]2CC[C@H]2CN2C[C@@]3(CCCc4cc(Cl)ccc43)COc3cc(F)c(cc32)C(=O)NS1(=O)=O [Example 701] too.
-- reply 8.84

-- ask What would you report for COC1C=CCC(OC)C(CC2CCCO2)S(=O)(=O)NC(=O)c2ccc3c(c2)N(CC2CCC21)CC1(CCCc2cc(Cl)ccc21)CO3 (single isomer, unassigned) [Example 641] ?
-- reply 9.27

-- ask Then this compound: CC1CC=CC(O)C2CCC2CN2CC3(CCCc4cc(Cl)ccc43)COc3ccc(cc32)C(=O)NS(=O)(=O)C1Cc1ccccc1 (single isomer, unassigned) [Example 648]
-- reply 8.84
